Target: BRAF V600E (Homo sapiens, UniProt P15056, V600E)
Construct: endogenous C-terminal HiBiT fusion tag on BRAF V600E allele; endogenous in cells; host or cells: A375 clone 1F10 (CRISPR-Cas9 knock-in of the HiBiT tag; parental A375 from ATCC)
Sequence (P15056 whole entry V600E, the tested form may be a part): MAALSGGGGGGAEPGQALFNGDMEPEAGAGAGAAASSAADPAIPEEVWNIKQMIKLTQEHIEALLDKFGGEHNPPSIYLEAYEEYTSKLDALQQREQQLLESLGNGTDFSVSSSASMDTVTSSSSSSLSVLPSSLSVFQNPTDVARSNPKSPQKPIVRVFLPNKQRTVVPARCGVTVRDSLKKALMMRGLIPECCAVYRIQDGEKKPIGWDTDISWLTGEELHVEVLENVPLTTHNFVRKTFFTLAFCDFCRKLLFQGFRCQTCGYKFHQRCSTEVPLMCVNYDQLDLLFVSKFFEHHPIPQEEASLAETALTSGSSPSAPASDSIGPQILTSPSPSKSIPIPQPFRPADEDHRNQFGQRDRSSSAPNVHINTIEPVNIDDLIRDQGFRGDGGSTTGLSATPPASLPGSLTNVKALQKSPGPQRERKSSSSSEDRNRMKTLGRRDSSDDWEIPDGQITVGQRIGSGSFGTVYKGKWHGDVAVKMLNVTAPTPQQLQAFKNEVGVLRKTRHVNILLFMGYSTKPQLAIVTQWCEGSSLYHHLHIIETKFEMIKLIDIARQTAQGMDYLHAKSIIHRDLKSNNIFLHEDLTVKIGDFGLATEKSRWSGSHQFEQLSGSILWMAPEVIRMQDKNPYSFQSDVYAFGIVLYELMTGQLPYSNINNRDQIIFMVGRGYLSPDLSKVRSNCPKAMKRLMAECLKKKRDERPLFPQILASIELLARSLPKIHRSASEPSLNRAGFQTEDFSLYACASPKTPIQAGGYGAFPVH
Assay: BRAF HiBiT degradation assay, C-terminal HiBiT-tagged BRAF V600E A375 cells (clone 1F10), Nano-Glo HiBiT Lytic assay
Type: cell-based
Settings: A375 (BRAF V600E); DC50 at 50%: fitted conc. at Y=50
readoutKind: DC50

compound	assayedSystem	readoutKind	measuredValue
CCCS(=O)(=O)Nc1cccc(-c2nc(C(C)(C)C)sc2-c2ccnc(NC3CC4(C3)CN(C(=O)C3(F)CCN(CC5CCN(c6ccc(C7CCC(=O)NC7=O)cc6)CC5)CC3)C4)n2)c1F (racemic)	BRAF V600E (Homo sapiens, UniProt P15056, V600E)	DC50	10 to 50 nM

**Query** In one line, give reported DC50 of the entry CCN(C)S(=O)(=O)Nc1cccc(-c2nc(C)sc2-c2ccnc(Nc3ccc(N4CCN(C(=O)CC5CCN(c6ccc(C7CCC(=O)NC7=O)cn6)CC5)CC4)cn3)n2)c1F (racemic) .
**Result** < 10 nM

**Query** For the compound CCCS(=O)(=O)Nc1cccc(-c2nc(C(C)(C)C)sc2-c2ccnc(Nc3cccc(C4CCN(C(=O)[C@@H]5CCN(c6ccc(C7CCC(=O)NC7=O)cn6)C5)CC4)c3)n2)c1F (mixture of isomers) , give its measured DC50 value.
**Result** 10 to 50 nM

**Query** Find the measured DC50 of CCCS(=O)(=O)Nc1cccc(-c2nc(C(C)(C)C)sc2-c2ccnc(Nc3cccc(OC4CCN(C(=O)CN5CCC(c6ccc(NC7CCC(=O)NC7=O)cc6)CC5)CC4)c3)n2)c1F (racemic) and report it.
**Result** 10 to 50 nM

* * *

// reported Dmax per item
Target: BRAF G466V (Homo sapiens, UniProt P15056, G466V)
Construct: Horizon Discovery (HCT-116 BRAF−/− cells); host or cells: HCT-116 BRAF−/− cells, clone 8, lentiviral transduction
Sequence (P15056 whole entry G466V): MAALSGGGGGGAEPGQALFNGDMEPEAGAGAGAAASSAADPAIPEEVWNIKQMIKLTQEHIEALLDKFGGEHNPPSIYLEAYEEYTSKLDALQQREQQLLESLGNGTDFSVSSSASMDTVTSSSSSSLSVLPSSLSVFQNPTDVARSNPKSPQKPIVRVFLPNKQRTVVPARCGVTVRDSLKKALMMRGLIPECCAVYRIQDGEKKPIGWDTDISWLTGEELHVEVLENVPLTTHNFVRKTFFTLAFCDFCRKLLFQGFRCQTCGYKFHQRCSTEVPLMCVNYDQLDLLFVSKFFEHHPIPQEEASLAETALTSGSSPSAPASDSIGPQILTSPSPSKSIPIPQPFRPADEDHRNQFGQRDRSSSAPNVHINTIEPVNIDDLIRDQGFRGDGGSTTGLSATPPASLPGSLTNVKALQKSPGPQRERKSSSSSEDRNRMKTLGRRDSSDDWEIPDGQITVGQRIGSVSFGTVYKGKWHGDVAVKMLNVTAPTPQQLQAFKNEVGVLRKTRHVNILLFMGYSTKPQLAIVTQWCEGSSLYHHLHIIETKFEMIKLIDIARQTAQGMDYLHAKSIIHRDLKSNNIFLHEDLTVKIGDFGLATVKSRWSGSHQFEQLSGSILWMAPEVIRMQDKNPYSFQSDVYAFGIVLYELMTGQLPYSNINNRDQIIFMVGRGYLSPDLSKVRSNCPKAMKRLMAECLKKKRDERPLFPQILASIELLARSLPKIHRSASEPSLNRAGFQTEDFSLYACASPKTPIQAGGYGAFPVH
Test: BRAF HiBiT degradation assay, C-terminal HiBiT-tagged BRAF G466V overexpressed in HCT-116 BRAF−/− cells (clone 8), Nano-Glo HiBiT Lytic assay
Assay type: cell-based
Details: HCT-116; BRAF G466V; percentage protein degraded at maximal compound effect relative to DMSO
Protocol: An A375 cell line expressing a homozygous V600E mutation was purchased from ATCC (Manassas, VA, USA). […] HiBiT signal was measured by a Nano-Glo HiBiT Lytic assay (Promega cat. no. N3050). […] Luminesce units (LU) were read on an EnVision plate reader 2105 (Perkin Elmer). Percent protein remaining and viability remaining per sample were calculated as follows: […]

Here's what some known entries look like.
molecule	assayedSystem	Dmax
CCCS(=O)(=O)Nc1cccc(-c2nc(C(C)(C)C)sc2-c2ccnc(Nc3ccc(N4CCN(C(=O)CN5CCc6cc(C7CCC(=O)NC7=O)ccc6C5)CC4)c(F)c3)n2)c1F (racemic)	BRAF G466V (Homo sapiens, UniProt P15056, G466V)	30 to 70%
CCCS(=O)(=O)Nc1cccc(-c2nc(C3CCN(C(=O)C4CCN(CC5CCN(c6ccc(C7CCC(=O)NC7=O)cn6)CC5)CC4)CC3)sc2-c2ccncn2)c1F (racemic)	BRAF G466V (Homo sapiens, UniProt P15056, G466V)	30 to 70%
CCCS(=O)(=O)Nc1cccc(-c2nc(C3CCN(C(=O)C4CCN(C(=O)C5CCN(c6ccc(C7CCC(=O)NC7=O)cn6)CC5)CC4)CC3)sc2-c2ccnc(NC(C)C)n2)c1F (racemic)	BRAF G466V (Homo sapiens, UniProt P15056, G466V)	30 to 70%
CCCS(=O)(=O)Nc1cccc(-c2nc(C(C)(C)C)sc2-c2ccnc(Nc3cnn(CC4CCN(C[C@H]5CC[C@H](Oc6ccc(C7CCC(=O)NC7=O)cc6)CC5)CC4)c3)n2)c1F (mixture of isomers)	BRAF G466V (Homo sapiens, UniProt P15056, G466V)	< 30%

Next up:
**Query** Please give measured Dmax of the following entry: CCCS(=O)(=O)Nc1cccc(-c2nc(C3(C)CCN(C(=O)C4CCN(CC5CCN(c6ccc(C7CCC(=O)NC7=O)cc6)CC5)CC4)CC3)sc2-c2ccnc(N)n2)c1F (racemic)
**Result** 30 to 70%

Hello, the source for this data is patent US20260317324A1, in case you need it.
